system: EV71 VP1_S184T_ P246S (RES); type: cell-based; settings: read-out: VP1_S184T_ P246S (RES) EC50
pEC50: −log10 of the molar value.

{"columns": ["sample_smiles", "pEC50"],
 "data": [
  ["CCOC(=O)/C=C/[C@H](C[C@@H]1CCNC1=O)NC(=O)[C@@H](CC(=O)[C@@H](NC(=O)c1cc(C)on1)C(C)C)Cc1ccc(F)cc1", 7.80]
]}

###

test: in vitro; conditions: human

{"columns": ["molecule", "CC50"],
 "data": [
  ["CN[C@@H]1[C@H](O[C@@H]2OC[C@@H](O)[C@H](O)[C@H]2O)[C@@H](O)[C@H](O[C@H]2c3cc(C)c(C(=O)N[C@H](C)C(=O)O)c(O)c3-c3c(cc4c(c3O)C(=O)c3cc(OC)cc(O)c3C4=O)[C@@H]2O)O[C@@H]1C [PRM-A, pradimycin A]", "> 100 µM"]
]}
